Assay: Viability Counterscreen for CMV-Luciferase Assay of Inhibitors of ATXN expression; note: nearly all actives have a fitted effect of over 55% in size
Details: HEK-293 CMV-luciferase cells viability, protease fluorescence, 24 h
About 320 (15%) of roughly 2,100 compounds were called active. Roughly 52% stayed inconclusive and do not appear here. Calls come from the whole dose curve; as a rule, active = well fitted cell-killing curve with a large enough effect; inconclusive = small, poorly fitted or top-dose-only effect, or effect the other way; inactive = flat fitted curve, though single readings scatter. This is one part of the list.
Outcome codes: active, inactive

# chemical-smiles, class-label
data = [
    ("CN(C)CCNC(=O)c1cccc(-c2cnc3c(NC=O)cc(-c4cccs4)cn23)c1", "inactive"),
    ("Cn1c(/C=C/c2ccc(Cl)cc2Cl)c([N+](=O)[O-])c(=O)n(C)c1=O", "active"),
    ("Cn1c(/C=C/c2ccc(Cl)cc2)c([N+](=O)[O-])c(=O)n(C)c1=O", "active"),
    ("CC(C)(C)c1ccc(C(=O)N2CCCCCC2=O)cc1", "inactive"),
    ("CCOC(=O)c1ccc(NC(=O)c2nc[nH]c2C(=O)N[C@H](C)c2ccccc2)cc1", "inactive"),
    ("CN1CCN(c2ccc(-c3cc(NC=O)c4ncc(-c5ccc(F)c(Cl)c5)n4c3)cc2)CC1", "inactive"),
    ("CN(C)C(=O)c1cccc(-c2cnc3c(NC=O)cc(-c4ccc(F)cc4)cn23)c1", "inactive"),
]

---

Assay: Viability Counterscreen for CMV-Luciferase Assay of Inhibitors of ATXN expression; note: nearly all actives have a fitted effect of over 55% in size
Details: HEK-293 CMV-luciferase cells viability, protease fluorescence, 24 h
Description: PI: Daniel Scoles Ph.D. University of Utah School of Medicine, Salt Lake City, Utah MLPCN Grant: NS073009 Spinocerebellar ataxia type 2 (SCA2) is a multisystem neurodegenerative disease caused by a dominantly acting mutation leading to expansion of a polyQ domain in the ataxin-2 protein (ATXN2). SCA2 patients develop progressive ataxia and later lose function in other neuronal systems. […] Here we describe a 5-7 dose quantitative high thoroughput screen (qHTS) for compounds lowering ATXN2 expression. […]
The whole screen tested about 2,100 compounds, of which about 320 (15%) were called active. About 52% were inconclusive and are not listed. The call rests on the fitted dose curve; in most records, active means well fitted cell-killing curve with a large enough effect; inconclusive means small, poorly fitted or top-dose-only effect, or effect the other way; inactive means flat fitted curve, though single readings scatter. The list shows a part of the results.
Classes used: active, inactive

# compound, class-label
records = [
    ("Cc1cc(N/N=C/c2ccc(O)cc2O)nc(-n2nc(C)cc2C)n1", "active"),
    ("CCC(C)(C)c1ccc(OCCCC[n+]2ccccc2)c(C(C)(C)CC)c1", "inactive"),
    ("Cc1ccc(S(=O)(=O)c2nc(S(C)(=O)=O)sc2N2CCCCC2C)cc1 (stereo not given)", "inactive"),
    ("CCOc1ccccc1NC(=O)CCCc1nc2ccccc2c(=O)[nH]1", "inactive"),
    ("c1ccc(-c2cc3c(N4CCN(c5ccccc5)CC4)ncnc3s2)cc1", "inactive"),
    ("Cc1cc(N/N=C\\c2ccc(Br)cc2)nc(-n2nc(C)cc2C)n1", "inactive"),
    ("OCCN1CCN(C2CCC(c3ccc(F)cc3)c3ccc(F)cc32)CC1 (stereo not given)", "inactive"),
    ("COc1ccc(CNC(=O)Nc2nc(C(N)Cc3ccc(Cl)cc3)cs2)cc1 (stereo not given)", "active"),
    ("COc1ccc(CC(N)c2csc(NC(=O)c3ccccc3OC)n2)cc1 (stereo not given)", "inactive"),
    ("CC(C)(O)C#Cc1ccc([C@@H]2C[C@H]3CN(c4ccccc4)C(=O)[C@]34CCCN24)s1", "active"),
    ("Cc1ccc(OCC(=O)c2cc(C)n(Cc3cccs3)c2C)c([N+](=O)[O-])n1", "inactive"),
    ("COc1ccc(S(=O)(=O)N(C)C)cc1NC(=O)C1CCN(c2ncnc3sc(C)c(C)c23)CC1", "inactive"),
    ("CCCC1CCC(c2ccc(C(=O)NN)cc2)CC1 (stereo not given)", "inactive"),
    ("O=C(CSc1nnnn1-c1ccccc1)Nc1nsc(-c2ccccc2)n1", "inactive"),
    ("CCCCC/C=C/C1=CC(=O)C[C@H](c2ccc(OC)c(OC)c2)C1", "inactive"),
    ("Cc1cc(Cl)c(C(=O)Nc2cccc(C(F)(F)F)c2)c(C)n1", "inactive"),
    ("CCc1ccc(C(=O)NNC(=O)C2CCN(c3ncnc4sc(C)c(C)c34)CC2)cc1", "inactive"),
    ("CSc1sc(-c2nnc(SCC(=O)Nc3ccc(Cl)cc3)n2C)c2c1C=CCC2", "inactive"),
    ("O=C(c1ccc(Cn2c(=S)[nH]c3ccccc3c2=O)cc1)N1CCN(c2ccccn2)CC1", "inactive"),
    ("CCN(CC)CCNc1ccnc2cc(Cl)ccc12", "inactive"),
    ("Cn1c(SCC(=O)N/N=C/c2ccc([N+](=O)[O-])s2)nnc1-c1ccc(Cl)cc1", "active"),
    ("CSc1cccc(NC(=O)c2ccc(CN3CCc4ccccc4C3)cc2)c1", "inactive"),
    ("Cn1c(SCC(=O)Nc2cc(Cl)cc(Cl)c2)nnc1-c1ccc2nonc2c1", "inactive"),
    ("COc1ccc(-c2csc(NC(=O)C3CCN(c4ncnc5sc(C)c(C)c45)CC3)n2)cc1OC", "active"),
    ("CC(C)(C)OC(=O)N1CCC(c2c(C(=O)NCC3CCN(C4CCCC4)C3)cnn2-c2cccc(Cl)c2)CC1 (stereo not given)", "inactive"),
    ("NS(=O)(=O)c1ccc(N2N=C(c3ccccc3)CC2c2ccc(F)cc2)cc1 (stereo not given)", "inactive"),
    ("CC1CCN(C(=O)c2cc3nc(-c4ccccc4)cc(-c4ccccc4)n3n2)CC1", "inactive"),
    ("O=C(NC(=S)NCc1nc2ccccc2[nH]1)c1ccc(F)cc1", "inactive"),
    ("CCCCOc1ccc(NC2=NC3(CCCC3)N=C(N)N2)cc1", "inactive"),
    ("O=C(Nc1ccc(Cl)cc1)Nc1nc(-c2sccc2Br)cs1", "active"),
    ("CN(C)C(CNC(=O)c1cccc(S(=O)(=O)N2CCN(c3ccc(F)cc3)CC2)c1)c1ccccc1 (stereo not given)", "inactive"),
    ("CCn1c2ccccc2c2cc(/C=N/n3cnnc3)ccc21", "inactive"),
    ("Cn1c(=O)c(C#N)c(-c2ccc(F)cc2)c2cc(C(=O)c3cc(Cl)cc(Cl)c3O)cnc21", "inactive"),
    ("N#Cc1cc2cc3c(cc2nc1SCC(=O)N1CCOCC1)OCCO3", "inactive"),
    ("COc1cccc(CN2CCC2(C)C(=O)Nc2cccc3cccnc23)c1OC (stereo not given)", "inactive"),
]
